target: Rap guanine nucleotide exchange factor 4 (Homo sapiens); assay: Confirmatory qHTS for antagonist of cAMP-regulated guanine nucleotide exchange factor 4 (EPAC2) (AID 1645885); settings: EPAC2 Rap1B-BODIPY-GDP exchange fluorescence, biochemical; series mostly up to 114 µM; note: % is set by controls: 0 for no effect and ±100 for the full control effect; nearly all actives have a fitted effect of over 25% in size
Results filed as inconclusive are left out. Active and inactive are the calls of the source. Calls come from the whole dose curve; as a rule, active = well fitted inhibition curve with a large enough effect; inconclusive = small, poorly fitted or top-dose-only effect; inactive = no such curve, though single readings can be large or run the other way.
value-type: activity change, negative = inhibition

# example entries with known answers
molecule	value-type	recorded-result
O=C1NC(=O)N(Cc2ccc(F)cc2)C(=O)/C1=C\C=C\c1ccco1	activity change, negative = inhibition	-5.04% [at 12.7 µM] (inactive)
CN1/C(=C\C=C2C(=O)NC(=S)NC2=O)C(C)(C)c2ccccc21	activity change, negative = inhibition	inactive
COc1ccc(OCC(=O)N2CCN(CC3CC4C=CC3C4)CC2)cc1 (stereo unspecified)	activity change, negative = inhibition	6.27% [at 12.7 µM] (inactive)
Cc1cccc(-c2nc(CN3C(=O)CN=C(c4ccccc4)c4ccccc43)c(C)o2)c1	activity change, negative = inhibition	48.3% [at 12.7 µM] (inactive)

Input: // lookup activity change, negative = inhibition for `COc1cccc(-n2c(/C=C/c3ccc(O)c(O)c3)nc3ccccc3c2=O)c1`
Output: -22.6% [at 12.7 µM] (inactive)

Input: Similarly, `CCOC(=O)[C@]12Cc3cc(C)ccc3[C@H]1N(C1CCCCC1)C(=O)c1ccccc12` ?
Output: -27.9% [at 12.7 µM] (inactive)
